- Tested system: Factor X (FX), P00742
- Sequence (P00742 whole entry, looked up): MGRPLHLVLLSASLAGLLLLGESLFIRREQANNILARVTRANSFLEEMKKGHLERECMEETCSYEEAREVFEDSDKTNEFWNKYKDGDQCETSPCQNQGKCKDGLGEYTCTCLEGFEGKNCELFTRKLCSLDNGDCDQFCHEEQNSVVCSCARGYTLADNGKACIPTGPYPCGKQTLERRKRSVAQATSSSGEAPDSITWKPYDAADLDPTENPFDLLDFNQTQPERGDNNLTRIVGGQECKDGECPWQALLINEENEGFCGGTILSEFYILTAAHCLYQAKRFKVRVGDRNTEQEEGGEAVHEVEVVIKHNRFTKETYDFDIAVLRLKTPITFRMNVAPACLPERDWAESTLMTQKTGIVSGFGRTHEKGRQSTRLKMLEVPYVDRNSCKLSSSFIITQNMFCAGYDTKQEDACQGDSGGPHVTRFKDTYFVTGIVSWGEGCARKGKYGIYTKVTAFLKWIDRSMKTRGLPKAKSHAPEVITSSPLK
# kcat of FX activation by FIXa in the Xase complex (FVIIIa, PC/PS vesicles, Ca2+) values compiled below
Kindly provide the numeric value in s⁻¹ only, without the unit symbol.

Note kcat of FX activation by FIXa in the Xase complex (FVIIIa, PC/PS vesicles, Ca2+) for the protein shown: FIXa-Y155F/R338E/T343R/R403E/E410N (protein) chain 1: YNSGKLEEFVQGNLERECMEEKCSFEEAREVFENTERTTEFWKQYVDGDQCESNPCLNGGSCKDDINSYECWCPFGFEGKNCELDVTCNIKNGRCEQFCKNSADNKVVCSCTEGYRLAENQKSCEPAVPFPCGRVSVSQTSKLTR chain 2: VVGGEDAKPGQFPWQVVLNGKVDAFCGGSIVNEKWIVTAAHCVETGVKITVVAGEHNIEETEHTEQKRNVIRIIPHHNYNAAINKYNHDIALLELDEPLVLNSYVTPICIADKEYTNIFLKFGSGYVSGWGRVFHKGRSALVLQYLRVPLVDRATCLESTKFRIYNNMFCAGFHEGGRDSCQGDSGGPHVTEVEGTSFLTGIISWGEECAMKGKYGIYTKVSEYVNWIKNKTKLT
5.7

Note kcat of FX activation by FIXa in the Xase complex (FVIIIa, PC/PS vesicles, Ca2+) for the protein shown: FIXa-Y155F/N260S/R318Y/R338E/R403E/E410N (protein) chain 1: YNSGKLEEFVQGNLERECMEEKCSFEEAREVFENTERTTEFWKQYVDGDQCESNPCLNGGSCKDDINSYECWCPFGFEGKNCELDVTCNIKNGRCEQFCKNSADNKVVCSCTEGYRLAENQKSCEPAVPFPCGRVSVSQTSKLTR chain 2: VVGGEDAKPGQFPWQVVLNGKVDAFCGGSIVNEKWIVTAAHCVETGVKITVVAGEHNIEETEHTEQKRNVIRIIPHHNYSAAINKYNHDIALLELDEPLVLNSYVTPICIADKEYTNIFLKFGSGYVSGWGRVFHKGYSALVLQYLRVPLVDRATCLESTKFTIYNNMFCAGFHEGGRDSCQGDSGGPHVTEVEGTSFLTGIISWGEECAMKGKYGIYTKVSEYVNWIKNKTKLT
5.8
